Source listed as patent US20240182536A1.

Target: T1, IL-18 receptor (IL-18Rα and IL-18Rβ) (UniProt Q13478 19-541; O95256 20-599, limits assumed)
T1 sequence (looked up) 1: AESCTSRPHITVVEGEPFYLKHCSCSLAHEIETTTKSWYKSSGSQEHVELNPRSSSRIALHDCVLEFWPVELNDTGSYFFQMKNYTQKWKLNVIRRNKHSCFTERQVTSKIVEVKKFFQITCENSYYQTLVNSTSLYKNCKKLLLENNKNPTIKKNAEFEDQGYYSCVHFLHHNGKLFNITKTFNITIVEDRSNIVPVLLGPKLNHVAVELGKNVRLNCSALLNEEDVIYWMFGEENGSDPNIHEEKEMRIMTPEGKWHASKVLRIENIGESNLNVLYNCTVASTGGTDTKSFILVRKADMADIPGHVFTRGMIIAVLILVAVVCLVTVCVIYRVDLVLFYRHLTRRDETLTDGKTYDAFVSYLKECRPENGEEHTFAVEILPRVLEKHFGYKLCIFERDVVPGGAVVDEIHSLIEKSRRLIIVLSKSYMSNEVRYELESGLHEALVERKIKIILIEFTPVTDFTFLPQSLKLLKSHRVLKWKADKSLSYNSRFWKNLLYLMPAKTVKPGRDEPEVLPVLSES
T1 sequence (looked up) 2: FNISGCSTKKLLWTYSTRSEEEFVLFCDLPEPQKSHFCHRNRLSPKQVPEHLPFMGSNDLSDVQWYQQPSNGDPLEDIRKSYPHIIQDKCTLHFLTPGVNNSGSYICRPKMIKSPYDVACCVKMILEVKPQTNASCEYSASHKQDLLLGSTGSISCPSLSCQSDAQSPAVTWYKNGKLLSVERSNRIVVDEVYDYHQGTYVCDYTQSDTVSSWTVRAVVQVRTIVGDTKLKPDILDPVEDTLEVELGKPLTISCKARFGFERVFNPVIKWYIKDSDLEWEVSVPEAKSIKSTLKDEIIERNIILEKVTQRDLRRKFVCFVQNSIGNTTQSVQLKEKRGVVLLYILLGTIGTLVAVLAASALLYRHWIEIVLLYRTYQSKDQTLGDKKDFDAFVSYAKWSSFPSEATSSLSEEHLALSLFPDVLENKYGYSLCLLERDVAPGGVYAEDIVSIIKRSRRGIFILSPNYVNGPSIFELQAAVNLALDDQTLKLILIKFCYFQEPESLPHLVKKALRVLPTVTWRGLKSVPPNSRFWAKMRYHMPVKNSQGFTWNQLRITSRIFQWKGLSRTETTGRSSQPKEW
Assay: cell-based or functional assay
Measured PBMC IFN gamma EC50 relative to WT-IL18, run 1, listed per entry for reference.
ASSAY_READOUT: PBMC IFN gamma EC50 relative to WT-IL18, run 1

BINDER: hIL18 (G3T, E6K, K53A, M60K) - KiH (Fc fusion) YFTKLKSKLSVIRNLNDQVLFIDQGNRPLFEDMTDSDMRDNAPRTIFIISMYADSQPRGKAVTISVKSEKISTLSSENKIISFKEMNPPDNIKDTKSDIIFFQRSVPGHDNKMQFESSSYEGYFLASEKERDLFKLILKKEDELGDRSIMFTVQNED
ENDPOINT_RESULT: 0.06
--
BINDER: hIL18 (G3T, E6K, K53S, M60K) - KiH (Fc fusion) YFTKLKSKLSVIRNLNDQVLFIDQGNRPLFEDMTDSDMRDNAPRTIFIISMYSDSQPRGKAVTISVKSEKISTLSSENKIISFKEMNPPDNIKDTKSDIIFFQRSVPGHDNKMQFESSSYEGYFLASEKERDLFKLILKKEDELGDRSIMFTVQNED
ENDPOINT_RESULT: 0.37
